- experimental-target: CYP2C9 (Homo sapiens, UniProt P11712)
- Construct: from tissue; host or cells: human liver microsomes
- Sequence (P11712 whole entry): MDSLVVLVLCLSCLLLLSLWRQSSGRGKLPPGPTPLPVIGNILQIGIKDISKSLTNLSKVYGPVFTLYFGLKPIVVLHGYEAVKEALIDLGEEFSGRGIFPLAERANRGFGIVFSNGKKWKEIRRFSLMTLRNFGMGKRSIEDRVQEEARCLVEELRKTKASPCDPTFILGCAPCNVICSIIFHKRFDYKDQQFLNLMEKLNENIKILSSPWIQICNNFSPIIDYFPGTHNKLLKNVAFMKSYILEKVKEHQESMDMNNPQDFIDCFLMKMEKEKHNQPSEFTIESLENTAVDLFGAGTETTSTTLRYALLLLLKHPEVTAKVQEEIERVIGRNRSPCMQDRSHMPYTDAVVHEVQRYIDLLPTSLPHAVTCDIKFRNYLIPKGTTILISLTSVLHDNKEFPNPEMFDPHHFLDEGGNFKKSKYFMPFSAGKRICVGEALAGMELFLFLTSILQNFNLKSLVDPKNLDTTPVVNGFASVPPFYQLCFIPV
- assay-details: Inhibition of CYP-2C9 (diclofenac hydroxylation, human liver microsomes)
- Type: in vitro ADME
- condition-notes: probe diclofenac (10 μM), hydroxylation, human liver microsomes 0.1 mg/mL, 37° C.
reported-property: IC50 (µM)
Report the figure in µM without appending any unit label.

Query: IC50; subject: CC(C)c1ccccc1-c1cccc2c1CC[C@H]2Nc1cnc2c(c1)OCC2CC(=O)O (stereo partly shown)
50

---

Item-by-item account of Amount of degradation after 2 h
- assay-details: Chemical stability (degradation kinetics) in acidic aqueous media, HPLC
- Type: physicochemical
- condition-notes: acetonitrile/0.1 M aqueous HCl (2:3), pH ca. 1.2, 37° C.
Report the figure in % without appending any unit label.

Below: 4 molecules and their reported Amount of degradation after 2 h.
Query: Amount of degradation after 2 h; subject: Cc1cc(OCCC(C)(C)O)cc(C)c1-c1ccc(F)c2c1CC[C@H]2Oc1ccc2c(c1)OC[C@H]2CC(=O)O [4 (WO 2013/144097), reference compound]
13

Query: Amount of degradation after 2 h; subject: Cc1cc(-c2nnn(C)n2)cc(C)c1-c1ccc(F)c2c1CC[C@H]2Oc1ccc2c(c1)OC[C@H]2CC(=O)O [95 (WO 2013/144097), reference compound]
4

Query: Amount of degradation after 2 h; subject: Cc1cc(OCCC(C)(C)O)cc(C)c1-c1ccc(F)c2c1CC[C@H]2Nc1cnc2c(c1)OC[C@H]2CC(=O)O
0.2

Query: Amount of degradation after 2 h; subject: Cc1cc(-c2nnn(C)n2)cc(C)c1-c1ccc(F)c2c1CC[C@H]2Nc1cnc2c(c1)OC[C@H]2CC(=O)O
0.4

Please find the next molecule below.
Query: Amount of degradation after 2 h; subject: Cc1cc(OCCCS(C)(=O)=O)cc(C)c1-c1cccc2c1CC[C@H]2Oc1ccc2c(c1)OC[C@H]2CC(=O)O [2 (WO 2013/144098), reference compound]
94
